Value source: the supplement of paper PMC6555819

# PBM binding z-score per entry
Tested on: VDR:RXRa (NR concentration 270 nM, RXRa partner concentration 90 nM)
experiment summary: PBM binding z-score (relative to random genomic background probes); higher = stronger binding; sequences stand for … in GC…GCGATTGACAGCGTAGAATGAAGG
// return just the number, without any unit appended

These recorded examples may help you get a feel for the data.
query sequence: GCTGCTAGGTCAACTGATGGTCAGCTCAAGCTCG
measurement target: VDR:RXRa (NR concentration 270 nM, RXRa partner concentration 90 nM)
PBM binding z-score: 1.59

query sequence: GGAACGAGGGAAAGTTGATAGCAGAGTTTGATGG
measurement target: VDR:RXRa (NR concentration 270 nM, RXRa partner concentration 90 nM)
PBM binding z-score: -0.524

I would be grateful if you could share the reported PBM binding z-score for `CGTCCAGGGTCATAGGAGGTCAGTGAAGACAGAT` .
6.65

----------
# PBM binding z-score per entry
Tested on: PPARg:RXRa 90nM:30nM, anti-RXR (NR concentration 90 nM, RXRa partner concentration 30 nM)
experiment summary: PBM binding z-score (relative to random genomic background probes); higher = stronger binding; sequences stand for … in GC…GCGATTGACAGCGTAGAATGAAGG
// return just the number, without any unit appended

query sequence: ATCCAAAGGTCGTGAGGTGAGTATACAGAAAGGC
measurement target: PPARg:RXRa 90nM:30nM, anti-RXR (NR concentration 90 nM, RXRa partner concentration 30 nM)
PBM binding z-score: 4.08

query sequence: AGAATGAGGTTATACGTAGATCAGGAAAGAAAGT
measurement target: PPARg:RXRa 90nM:30nM, anti-RXR (NR concentration 90 nM, RXRa partner concentration 30 nM)
PBM binding z-score: 1.47

query sequence: ACTTACGGGTCAACGAGGTTATAGCACGCGTATA
measurement target: PPARg:RXRa 90nM:30nM, anti-RXR (NR concentration 90 nM, RXRa partner concentration 30 nM)
PBM binding z-score: 4.14

query sequence: CCGAGTAGGTTATGGGGCATTCACGCAACGGTGA
measurement target: PPARg:RXRa 90nM:30nM, anti-RXR (NR concentration 90 nM, RXRa partner concentration 30 nM)
PBM binding z-score: 4.69

Item `CGTACAAGGTCAAGGTCAGTGAAAGAGACTCGAA` with PPARg:RXRa 90nM:30nM, anti-RXR (NR concentration 90 nM, RXRa partner concentration 30 nM) - PBM binding z-score?
5.87

Item `TCTATGAGTTGAAGGGCAACCGACGAGTCCGTTT` with PPARg:RXRa 90nM:30nM, anti-RXR (NR concentration 90 nM, RXRa partner concentration 30 nM) - PBM binding z-score?
2.22

----------
Tested on: LXRa homodimer (NR concentration 270 nM)
experiment summary: PBM binding z-score (relative to random genomic background probes); higher = stronger binding; sequences stand for … in GC…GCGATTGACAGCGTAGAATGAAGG
Decide by PBM binding z-score: equal to or exceeding 0.3 means criterion met, less means criterion not met.

Has `TCTAGCAGGCCAGAGTGTCACTCAAGAGGTACGG` a recorded PBM binding z-score greater than or equal to 0.3?
criterion not met

Has `GCTTACGGGTCAAAGGTTTTAGCATGAATAGAAT` a recorded PBM binding z-score greater than or equal to 0.3?
criterion not met

Has `TCATATAGGTAAAAGGTGTAAGTCGGTGTGGTAA` a recorded PBM binding z-score greater than or equal to 0.3?
criterion not met

Has `CCGACTAGGGCAAGGTTACCATAACGCACAGCCA` a recorded PBM binding z-score greater than or equal to 0.3?
criterion not met

Has `CCTAGCAGGCCAGGGTGACTCAAGCATTTCGCTT` a recorded PBM binding z-score greater than or equal to 0.3?
criterion not met

Has `TCATATAGGTAATACAGGTGAAAGTCGGCATCTA` a recorded PBM binding z-score greater than or equal to 0.3?
criterion met

Has `CCAGACAGGTGATAAGGTAACTCAGCCTCGATTA` a recorded PBM binding z-score greater than or equal to 0.3?
criterion not met

Has `TTCCCAAGGTGAGCTGAGGTCGTTGATCCAACTC` a recorded PBM binding z-score greater than or equal to 0.3?
criterion not met

Has `ATCTCTAGGTAAAGTTCAGTGGAAGATCGATAGA` a recorded PBM binding z-score greater than or equal to 0.3?
criterion met

Has `GCTGCTAGATCAACTGATGGTCAGCTAAAGCTCG` a recorded PBM binding z-score greater than or equal to 0.3?
criterion not met

Has `CGTCCAAGGTCAAGGTCAGTAAAAGAGACTCGAA` a recorded PBM binding z-score greater than or equal to 0.3?
criterion met

Has `CCTCGGAGGACAGGAGGTCAGAGCTGTCCGCTTT` a recorded PBM binding z-score greater than or equal to 0.3?
criterion met

Has `ATCTCTAGGTAAGACGCAGTTCAGTGAAGAACGC` a recorded PBM binding z-score greater than or equal to 0.3?
criterion not met

Has `CCGAATGGGGCAAGGTTACCATAACGCACAGCCA` a recorded PBM binding z-score greater than or equal to 0.3?
criterion not met

Has `TCTGCTAGGCCAACGATGGTCAGCTAATCTGCTA` a recorded PBM binding z-score greater than or equal to 0.3?
criterion not met

Has `CGTCCAAGGTCAAAGGTCAGTGAAGAGATGACGG` a recorded PBM binding z-score greater than or equal to 0.3?
criterion met

Has `ATATATAGGTTACATCCGGGTCATTCAGGCTATG` a recorded PBM binding z-score greater than or equal to 0.3?
criterion met

Has `TCATATAGGTTAATGCTAGGTGAAAGTCCGATCT` a recorded PBM binding z-score greater than or equal to 0.3?
criterion met

Has `TCTGCCAGGTCAACGATGGTCAGCTAATCTGCTA` a recorded PBM binding z-score greater than or equal to 0.3?
criterion not met

Has `GCAGACAGGTGAAACGGAGGTAACTCAGGGTGGC` a recorded PBM binding z-score greater than or equal to 0.3?
criterion not met

----------
System: PPARg:RXRa DBDmut IVT, anti-RXR (DBD mutation: RXRa K156A/R161A, NR concentration 270 nM, RXRa partner concentration 90 nM)
experiment summary: PBM binding z-score (relative to random genomic background probes); higher = stronger binding; sequences stand for … in GC…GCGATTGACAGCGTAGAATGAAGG
recorded endpoint: PBM binding z-score

These recorded examples may help you get a feel for the data.
query sequence: TCATATAGGTAAAGGGGAAAGTCGAACGATATGA
recorded endpoint: PBM binding z-score
reading: 4.16

query sequence: CGAACGAGGTCAAGGACAGTGAATCTCCGCACGC
recorded endpoint: PBM binding z-score
reading: 5.22

query sequence: CAAACTATGTCACGAAAGGTCAAAGTCGAATGAC
recorded endpoint: PBM binding z-score
reading: 5.09

I would be grateful if you could share the reported PBM binding z-score for `CAAACTAGGTCTCAGAGGTCAAAGTCCGTGCGTA` .
5.55

I would be grateful if you could share the reported PBM binding z-score for `CCTACTGGGCCATGAGGTCATTGATATCAACGTT` .
4.24

I would be grateful if you could share the reported PBM binding z-score for `GCTATTAGTTAAAAGGGCAACCGAATGATTCTCG` .
0.433

I would be grateful if you could share the reported PBM binding z-score for `ATATGTAGGTTACATCCGGCTCATTCAGGCTATG` .
7.66

I would be grateful if you could share the reported PBM binding z-score for `CCGATTAGGTTATGGGGCATTCAGGCAACGGTGA` .
2.29

I would be grateful if you could share the reported PBM binding z-score for `TAGCCTAGGTCATCCAGGGGCCAGTATAGAAAGC` .
1.23

I would be grateful if you could share the reported PBM binding z-score for `AATACAGGGTCAGCGTAGGCCAGAGTACGCACAG` .
1.94

I would be grateful if you could share the reported PBM binding z-score for `ATCTCTAGGTAACAAGTTCATTGAAAGAGAGGAC` .
3.39

I would be grateful if you could share the reported PBM binding z-score for `TCTATTAGTTGATTAGGGCCACCGAAACAGCGGA` .
1.82

I would be grateful if you could share the reported PBM binding z-score for `CCGACTGGGGCATAAGGTTACCACAAGCCAGCCC` .
2.87

I would be grateful if you could share the reported PBM binding z-score for `ATCTCTAGGGAACAAGTTCAGTGAAAGAGAGGAC` .
0.484

I would be grateful if you could share the reported PBM binding z-score for `GCTGCTAGGTCAACTGACGGTCAGCTAAAGCTCG` .
5.14

I would be grateful if you could share the reported PBM binding z-score for `TGAATGAGGTTAAAGATGAGGGAACGTGGCGTCG` .
2.54

I would be grateful if you could share the reported PBM binding z-score for `ATCTCTAGGTACGACTCAGTTCAGTGAAGAACGC` .
0.59

I would be grateful if you could share the reported PBM binding z-score for `TGAATGAGGTTAAAGATCAGCGAACGTGGCGTCG` .
2.09
